These data points were gathered from the METLIN SMRT retention time set (Domingo-Almenara et al. 2019).

assayNotes: gradient 5% acetonitrile 3 min, to 50% in 2 min, to 85% in 15 min, held 3 min, 100 µL/min
conditionsUsed: column: Zorbax Extend-C18 2.1 x 50 mm; eluents: water / acetonitrile, 0.1% formic acid
reportedProperty: RP-LC retention time (s)
Form entry: value (s) — number only.

Look at this compound and give its reported RP-LC retention time. `COc1ccc(CN2C(=O)CC(c3ccc(OC)c(OC)c3)CC2=O)cc1` 879

Quick one: `COc1ccc(-c2csc(NC(=O)c3ccc(C)o3)n2)cc1` 962

Now try `COc1cc(OC)c(NC(=O)Cn2nc3cc(C)nc(-c4ccc(F)cc4)n3c2=O)cc1Cl` . 899

Then `Cc1cccc2sc(NC(=O)C3(c4cccs4)CCOCC3)nc12` ? 987

Then what about the compound `CCn1cnc(S(=O)(=O)N2CCC(C(=O)N3CCN(c4cc(C)ccc4C)CC3)CC2)c1` ? 878

Further, for Cc1ccc2c(c1)N(S(C)(=O)=O)CCC(C(=O)Nc1cccc(OC(C)C)c1)O2 (centres undefined) ? 893

Thanks! And `CCn1nccc1-c1cccc(-c2noc(-c3cnccn3)n2)c1` ? 883

And then `Cc1ccc2c(c1)N(Cc1ccccc1)N=C(C(=O)N1CCCC1)S2(=O)=O` , what is it? 876

Entry to check: `CC(C)c1ccc(S(=O)(=O)N2CCC3(CC2)c2nccn2CCN3C)cc1` 720

Would you kindly repeat that for `COC(=O)c1cc(OCC(=O)Nc2cccc(Cl)c2)c2ccccc2n1` ? 821

Also `O=C(NCCN1CCOCC1)c1cc2cc(Cl)ccc2o1` ? 558

Entry `Cc1ccc(NC(=O)Cn2nc(N3CCCCCC3)c3ccccc3c2=O)cc1C` please 1200

Could you do the same for `CCc1noc(NC(C)=O)c1-c1ccc(OC)c(S(=O)(=O)NCc2ccc(F)cc2)c1` , please? 794

Repeat for the following compound: Cc1noc(C2CN(C(=O)c3cnn(C)c3)CC23CCCC3)n1 (centres undefined) 684

Then this compound: `Cc1ccc(CNC(=O)N2CCN(Cc3c(C)noc3C)CC2)cc1` 611

Next compound up: `CC(C)c1noc(-c2ccc(-n3cnc(C(=O)N4CCOCC4)c3)nc2)n1` 745

Would you mind doing `O=C(Cn1c(=O)n(C2CCCCC2)c2ncccc21)NCc1ccccc1` as well? 895

Also COc1ccc(S(=O)(=O)N2CCCC(C(=O)Nc3ccccc3Br)C2)cc1C (centres undefined) ? 1040

And then CCC(C(=O)NC(C)C(=O)N1CCCCC1)n1c2ccccc2c2cnn(C)c(=O)c21 (centres undefined) , what is it? 670

Try `CN1CCN(CCCNC(=O)CC2CCN(C(=O)c3cc4cc(Cl)ccc4[nH]3)CC2)CC1` next. 569

Okay, and CSc1cccc(NC(=O)C2CCC(=O)N2S(=O)(=O)c2ccc(C)cc2)c1 (centres undefined) ? 954

Another compound to look at: `CCOC(=O)c1nc(N(C)C2CCCCC2)c2ccccc2n1` 789

Entry to check: CC(C)(C)c1ccc(C(=O)N(Cc2ccc(Br)o2)C2CCS(=O)(=O)C2)cc1 (centres undefined) 1110

Queued: `CCN(CCN(C)C)c1ccc(NS(=O)(=O)c2ccccc2)cc1C(=O)O` 582

====

assayNotes: gradient 5% acetonitrile 3 min, to 50% in 2 min, to 85% in 15 min, held 3 min, 100 µL/min
conditionsUsed: column: Zorbax Extend-C18 2.1 x 50 mm; eluents: water / acetonitrile, 0.1% formic acid
reportedProperty: RP-LC retention time (s)
Respond numerically; units are s and should not be typed.

Tell me the measured RP-LC retention time of `O=C(NCCc1csc(-c2cccs2)n1)C1CCN(S(=O)(=O)c2ccccc2)CC1` , please. 889

Also `O=C(NCc1nc(-c2ccccc2)no1)c1cc(C2CC2)on1` ? 822

Lookup CCOc1ccc(CCNC(=O)C2CCCN(C(=O)c3cc(C)cc(C)c3)C2)cc1OCC (stereo unspecified) 920

# iterate: `CC1CCN(S(=O)(=O)c2ccc3nn(Cc4cccc(Cl)c4)c(=O)n3c2)CC1` 1070

Can you check `CCOC(=O)c1nc(NCc2ccccc2OC)c2c(CC)noc2n1` next? 943

Okay, and `Nc1cc(C2CCN(C(=O)Nc3ccccc3Br)CC2)no1` ? 706

And for `CCOC(=O)c1cccc(NC(=O)Cn2ccc3ccc(-c4nnc(C)o4)cc32)c1` ? 829

# iterate: `O=C(c1cc2occc2c(Nc2ccc(Cl)cc2)n1)N1CCN(C(=O)c2ccco2)CC1` 861

Repeat with `CSc1ccc(-c2noc(Cc3nnc(-c4cccc(Br)c4)o3)n2)cc1` 1170

Would you mind doing `O=C(NCc1ccc2c(c1)CCN2C(=O)c1ccccc1)C1CCN(S(=O)(=O)N2CCCC2)CC1` as well? 829

Record: `Cc1cccc(NS(=O)(=O)c2cc3n(c2)CCN(C)C3=O)c1C` 694

Proceed to `COC[C@@H]1CN(C(=O)c2cc(C)oc2C)C[C@H]1c1nc(C2CC2)no1` 815

Moving on to `CCOC(=O)c1ccc(NC(=O)CSc2ccc3nnc(-c4ccccn4)n3n2)cc1` 656

Quick one: CCc1nc2cc(N3CCCC(C(=O)NCc4ccco4)C3)cnc2nc1CC (stereo unspecified) 673

How about this compound: `COc1ccc(NC(=O)C2=Cc3cc(Br)ccc3OC2)c(OC)c1` 1120

And then `CCn1nnc2c(Nc3cccc(C(C)=O)c3)ncnc21` , what is it? 686
